pIC50: −log10 of the molar value.
// compounds with reported pIC50 on Procathepsin L (Rattus norvegicus, UniProt P07154), multi-publication
MEASUREMENT_KIND: pIC50

INSERT INTO measurements (compound, value_relation_sign, result_number) VALUES
  ('O=C(N[C@@H](Cc1ccccc1)C(=O)N[C@@H]1C(=O)N2CCCS(=O)(=O)[C@@H]12)OCc1ccccc1', '=', 5.67),
  ('O=C(N[C@@H](Cc1ccccc1)C(=O)N[C@@H]1C(=O)N2CCS(=O)(=O)[C@H]12)OCc1ccccc1', '=', 8.02),
  ('CC(=O)O[C@@H]1NC(=O)[C@H]1NC(=O)[C@H](CCc1ccccc1)NC(=O)OCc1ccccc1', '=', 4.94),
  ('CC(C)C[C@H](NC(=O)CCc1ccccc1)C(=O)NC1=CNC2(CCCC2)NC1=O', '<', 4.30),
  ('O=C(CCc1ccccc1)NC(Cc1ccc2ccccc2c1)C(=O)NC1C(=O)NC1Sc1ccccc1 (stereo not shown)', '=', 8.21),
  ('O=C(CCc1ccccc1)N[C@@H](Cc1ccccc1)C(=O)N[C@@H]1C(=O)N2CC(c3ccccc3)O[C@H]12 (stereo partly shown)', '<', 4.30),
  ('O=C(CCc1ccccc1)N[C@@H](Cc1ccc2c(c1)OCCO2)C(=O)N[C@@H]1C(=O)N[C@H]1Oc1ccccc1', '=', 7.10);
